target.or.test.system: LecA (Pseudomonas aeruginosa, UniProt Q05097)
Construct: made in house
Sequence (Q05097 whole entry): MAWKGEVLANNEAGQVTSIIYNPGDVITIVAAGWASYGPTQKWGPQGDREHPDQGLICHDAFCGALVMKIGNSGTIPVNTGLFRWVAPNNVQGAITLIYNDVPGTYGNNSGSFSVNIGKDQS
measurement.notes: Direct binding to immobilized LecA by surface plasmon resonance (SPR)
run.conditions: SPR single-cycle kinetics, 25 °C, N=3 (I1 N=1)
measurement.kind: kon

compound	value.measured
O=C(CCc1ccc(O[C@@H]2O[C@H](CO)[C@H](O)[C@H](O)[C@H]2O)cc1)Nc1ccc(Oc2ccc(NC(=O)CCc3ccc(O[C@@H]4O[C@H](CO)[C@H](O)[C@H](O)[C@H]4O)cc3)cc2)cc1	158 ± 5.7 x10^3/Ms
O=C(CCc1ccc(O[C@@H]2O[C@H](CO)[C@H](O)[C@H](O)[C@H]2O)cc1)Nc1ccc(OCCOc2ccc(NC(=O)CCc3ccc(O[C@@H]4O[C@H](CO)[C@H](O)[C@H](O)[C@H]4O)cc3)cn2)nc1	142 ± 3.5 x10^3/Ms
O=C(CCc1ccc(O[C@@H]2O[C@H](CO)[C@H](O)[C@H](O)[C@H]2O)cc1)Nc1ccc(CCc2ccc(NC(=O)CCc3ccc(O[C@@H]4O[C@H](CO)[C@H](O)[C@H](O)[C@H]4O)cc3)cc2S(=O)(=O)O)c(S(=O)(=O)O)c1	215 ± 29 x10^3/Ms
O=C(/C=C/c1ccc(O[C@@H]2O[C@H](CO)[C@H](O)[C@H](O)[C@H]2O)cc1)Nc1ccc(OCCOc2ccc(NC(=O)/C=C/c3ccc(O[C@@H]4O[C@H](CO)[C@H](O)[C@H](O)[C@H]4O)cc3)cc2)cc1 [Compound D1]	61.1 ± 2.5 x10^3/Ms
